# Tested on: FLT4
# condition-context: concentration: 1 μM, replicates: in singlicate; n = 1;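 note: KINOMEscan kinase panel screen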
result-type: %Inh

Q: For the compound Cn1cncc1-c1cc2c(Nc3ccc(OCc4ccccc4)cc3)ncnc2cn1 [GW281179] , what %Inh is on record?
A: 0%

Q: Field request: %Inh | item: O=C1NC(=O)C(c2ccc(Cl)cc2)=C1Nc1cccc(Cl)c1 [SB-317651]
A: 0%

Q: I'd like to know its %Inh. The compound in question is COC(=O)c1cccc(NC(=O)NC2CCN(c3ccnc(Nc4ccc(OC)cc4)n3)C2)c1 (centres unmarked) [GSK1379746]
A: 4%

Q: // query %Inh value for entry COc1ccc(Nc2nccc(NCCNC(=O)Nc3cc(C)ccc3C)n2)cc1 [GSK1379899]
A: 8%

Q: Record request: %Inh value, item CC(=O)c1c(C)c2cnc(Nc3ccc(N4CCNCC4)cn3)nc2n(C2CCCC2)c1=O
A: 0%

====

# System: PLK4
# condition-context: concentration: 1 μM, replicates: in singlicate; n = 1
Please provide measured %Inh for the entries that follow.
The figure you give is taken to be in %; do not add the unit.

Q: Which measured %Inh value corresponds to Cc1c(Cn2c(C)c(C)n3c(=O)cc(N4CCOCC4)nc23)cccc1C(F)(F)F ?
A: 0

Q: I'd like to know its %Inh. The compound in question is CSc1ccc(-c2nc3n(c2-c2ccncc2)CCC3)cc1
A: 2

Q: Dear colleague, I am looking for the recorded %Inh of the following compound: CCn1c(-c2ccccc2)nc2cnccc21
A: 0

Q: Request the reported %Inh associated with CNc1cc(-c2ccc3c(N)n[nH]c3c2)nc(N)n1
A: 5

Q: Look up %Inh: Cn1cncc1-c1cc2c(Nc3ccc(OCc4ccccc4)cc3)ncnc2cn1
A: 0

Q: Quick one: %Inh of CC(C)c1ccc(O)cc1Nc1ccnc2ccc(C(F)(F)F)cc12 ?
A: 0

Q: Which %Inh value belongs to O=C(Nc1n[nH]c2cc(-c3ccsc3)ccc12)C1CC1 ?
A: 0

Q: What measured %Inh goes with Cc1ccc(-c2nc(Nc3ccncc3)c3ccccc3n2)s1 ?
A: 0

Q: Sample Cl.Cl.Cl.N#Cc1ccc(CCNc2nccc(-c3cccc(CN4CCNCC4)c3)n2)cc1 — what was its %Inh?
A: 6

Q: Item O=c1cc(N2CCOCC2)nc2n(Cc3ccccc3F)ccn12 has what recorded %Inh?
A: 8

====

# System: NEK11
# condition-context: concentration: 1 μM, replicates: in singlicate; n = 1
Field: %Inh. Provide a value for each of the compounds that follow.
Write it as a number; the unit % goes unstated.

Q: Fill blank: measured %Inh of the compound COc1ccc(Nc2nccc(N3CCC(NC(=O)C(C)c4ccc(Cl)cc4)CC3)n2)cc1 (centres unmarked) is ____.
A: 0

Q: Fill in: %Inh of Cc1c(Cn2c(C)c(C)n3c(=O)cc(N4CCOCC4)nc23)cccc1C(F)(F)F is ___
A: 5

Q: Consider the compound Cc1ccc(NC(=O)Nc2ccccc2F)cc1-c1ccc(C(=O)Nc2ccncc2)cc1 and give its measured %Inh.
A: 0

Q: Fill blank: measured %Inh of the compound CC(C)c1cc(-c2ccc3c(N)n[nH]c3c2)nc(N)n1 is ____.
A: 0

Q: What does the data say about its %Inh? Entry: CC(=O)c1c(C)c2cnc(Nc3ccc(N4CCNCC4)cn3)nc2n(C2CCCC2)c1=O
A: 0
